biological target: Aurora B/INCENP (Homo sapiens); experiment: Determination of inhibition of AIK: Aurora B/INCENP direct fluorescence polarization (IMAP) assay; conditions: 10 uM ATP, 0.8 nM Aurora B/INCENP; values given as bins; read-out: IC50 of Exemplified Compounds Against AIK B
Sequence (Q96GD4 whole entry): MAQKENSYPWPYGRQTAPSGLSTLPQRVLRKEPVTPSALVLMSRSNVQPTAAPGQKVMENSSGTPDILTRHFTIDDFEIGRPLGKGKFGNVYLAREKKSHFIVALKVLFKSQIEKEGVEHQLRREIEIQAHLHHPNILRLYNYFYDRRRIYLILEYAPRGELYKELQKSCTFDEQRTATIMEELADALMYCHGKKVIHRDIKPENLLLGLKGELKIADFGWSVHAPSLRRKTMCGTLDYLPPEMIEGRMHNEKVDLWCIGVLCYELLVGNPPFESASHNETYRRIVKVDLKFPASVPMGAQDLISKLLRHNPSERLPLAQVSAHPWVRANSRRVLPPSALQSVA
Sequence (Q9NQS7 whole entry partner): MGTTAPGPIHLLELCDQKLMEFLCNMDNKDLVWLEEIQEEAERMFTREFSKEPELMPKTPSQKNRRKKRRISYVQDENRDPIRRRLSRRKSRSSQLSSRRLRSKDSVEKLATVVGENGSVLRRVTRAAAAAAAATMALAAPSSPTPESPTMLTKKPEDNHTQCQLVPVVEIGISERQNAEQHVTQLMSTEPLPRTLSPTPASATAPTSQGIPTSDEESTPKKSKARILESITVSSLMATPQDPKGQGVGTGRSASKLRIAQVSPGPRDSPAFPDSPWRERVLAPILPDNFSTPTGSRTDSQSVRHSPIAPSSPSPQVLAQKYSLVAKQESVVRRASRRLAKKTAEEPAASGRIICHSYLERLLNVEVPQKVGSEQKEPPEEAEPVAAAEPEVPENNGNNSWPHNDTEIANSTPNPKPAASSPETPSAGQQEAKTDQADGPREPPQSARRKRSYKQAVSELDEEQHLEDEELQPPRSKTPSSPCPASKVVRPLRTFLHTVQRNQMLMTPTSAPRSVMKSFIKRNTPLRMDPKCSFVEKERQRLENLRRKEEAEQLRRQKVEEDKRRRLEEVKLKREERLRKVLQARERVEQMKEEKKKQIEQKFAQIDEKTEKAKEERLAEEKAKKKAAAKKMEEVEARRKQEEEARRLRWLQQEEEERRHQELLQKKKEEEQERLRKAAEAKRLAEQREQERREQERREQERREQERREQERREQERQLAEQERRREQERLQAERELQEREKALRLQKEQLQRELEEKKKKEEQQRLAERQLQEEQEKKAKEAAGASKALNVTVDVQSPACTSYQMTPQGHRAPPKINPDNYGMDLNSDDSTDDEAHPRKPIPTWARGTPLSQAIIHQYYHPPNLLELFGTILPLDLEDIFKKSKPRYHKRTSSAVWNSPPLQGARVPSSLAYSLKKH
pIC50: −log10 of the molar value.
MEASUREMENT_NAME: pIC50

# example entries with known answers
1. CCS(=O)(=O)c1cccc(-c2cc(C(=O)NC3CCN(C)CC3)c(C)c3[nH]c4ncc(C)cc4c23)c1    7.89 to 8.07
2. Cc1cnc2[nH]c3c(OC[C@@H]4CN(C)CCO4)ccc(-c4cccc(S(=O)(=O)C5CC5)c4)c3c2c1    8.26 to 8.40
3. CCS(=O)(=O)c1cccc(-c2cnc(C)c3[nH]c4ncc(C)cc4c23)c1    8.07 to 8.25

Lookup: I have this molecule here, "CCS(=O)(=O)c1cccc(-c2cc(CN3CCCC3)cc3[nH]c4ncc(C)cc4c23)c1" , and I need its recorded pIC50.
Found: < 7.89

Lookup: Value lookup for pIC50; key = "CCS(=O)(=O)c1cccc(-c2cnc(Cl)c3[nH]c4ncc(C)cc4c23)c1"
Found: 8.26 to 8.40

Lookup: Look up pIC50 for this molecule: "CCN(CC)C(=O)c1cccc(-c2ccc(OC)c3[nH]c4ncc(C)cc4c23)c1"
Found: 8.26 to 8.40

Lookup: What value of pIC50 has been reported for the following molecule? "CCS(=O)(=O)c1cccc(-c2ccc(OC[C@H]3CCN(C)C3)c3[nH]c4ncc(C)cc4c23)c1"
Found: < 7.89

Lookup: State the recorded pIC50 for this entry: "Cc1cnc2[nH]c3c(C)c(C(=O)NC4CCN(C)CC4)cc(-c4cccc(NC(=O)C5CC5)c4)c3c2c1"
Found: 8.07 to 8.25
